Where do these numbers come from? They come from patent US20230011916A1.

TEST SYSTEM: T1, recombinant OX40 protein with a His tag (Cat: 10481-H08H, Sino Biological) (UniProt P43489 29-216)
T1 construct: Bought protein; also called OX40-His (bought); not shown: His tag
T1 sequence (looked up): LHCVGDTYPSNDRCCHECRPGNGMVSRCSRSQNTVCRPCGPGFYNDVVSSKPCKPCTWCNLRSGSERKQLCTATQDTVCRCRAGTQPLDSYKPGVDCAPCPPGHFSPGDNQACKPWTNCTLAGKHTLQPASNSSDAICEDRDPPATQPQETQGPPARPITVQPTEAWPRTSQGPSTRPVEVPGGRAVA
RUN DESCRIPTION: SPR, BIAcore T-200; antibody captured by anti-human IgG, OX40-His flowed; Mean
PARAMETER: pKd
Numbers only, as −log10 of the molar value.

Field: example entries. Status: answers known.
BINDER: 445-3 (antibody, V domains shown) VH: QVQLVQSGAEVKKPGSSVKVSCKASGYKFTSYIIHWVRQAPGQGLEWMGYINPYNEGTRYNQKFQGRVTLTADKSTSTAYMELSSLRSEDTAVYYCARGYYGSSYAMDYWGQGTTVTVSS VL: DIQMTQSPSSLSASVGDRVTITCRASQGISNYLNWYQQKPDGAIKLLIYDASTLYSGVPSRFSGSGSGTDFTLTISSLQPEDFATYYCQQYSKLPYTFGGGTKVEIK
pKd: 8.02
--
BINDER: 445-2 (antibody, V domains shown) VH: QVQLVQSGAEVKKPGSSVKVSCKASGYKFTSYIIHWVRQAPGQGLEWMGYINPYNEGTRYAQKFQGRVTLTADKSTSTAYMELSSLRSEDTAVYYCARGYYGSSYAMDYWGQGTTVTVSS VL: DIQMTQSPSSLSASVGDRVTITCSASQGISNYLNWYQQKPGKAIKLLIYDASTLYSGVPSRFSGSGSGTDFTLTISSLQPEDFATYYCQQYSKLPYTFGGGTKVEIK
pKd: 7.87

Below are 2 binders. Give each one its pKd.
1. 445-3 IgG4 (antibody, V domains shown) VH: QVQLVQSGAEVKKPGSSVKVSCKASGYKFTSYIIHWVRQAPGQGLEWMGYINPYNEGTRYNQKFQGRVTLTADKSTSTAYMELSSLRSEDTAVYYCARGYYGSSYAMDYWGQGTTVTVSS VL: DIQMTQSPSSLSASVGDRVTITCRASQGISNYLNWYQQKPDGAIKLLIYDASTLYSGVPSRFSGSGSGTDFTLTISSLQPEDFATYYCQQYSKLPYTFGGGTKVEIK
2. ch445 (antibody, V domains shown, also called Mu445 variable domains fused to human IgG1wt/kappa constant regions) VH: EVQLQQSGPELVKPGASVKMSCKASGYKFTSYIIHWVKQKPGQGLEWIGYINPYNDGTRYNEKFKGKATLTSDKSSSTAYMEYSSLTSEDSAVYYCARGYYGSSYAMDYWGQGTSVTVSS VL: DIQMTQTTSSLSASLGDRVTISCSASQGISNYLNWYQQKPDGTIKLLIYDTSTLYSGVPSRFSGSGSGTDYFLTISNLEPEDIATYYCQQYSKLPYTFGGGTKLEKK

8.00
8.14
